System: Mycobacterium tuberculosis
Protocol Notes: Cornell M. t heat shock assay; also: in the data most compounds retested in dose-response had high values
Format: functional, organism-based
Design: dose or concentration left out as unconfirmed
Out of some 69,000 compounds screened, about 950 (1.4%) showed an effect of 50% or more. What follows is part of a selection rich in strong results, with near analogues and random picks from the rest.
Param threshold (30%) applies to Percent Effect; output YES when value >= threshold, NO when value < threshold.

Inquiry: Record `O=C(NCCC1=CCCCC1)c1cc(-c2ccc(O)cc2)n[nH]1` ; criterion: Percent Effect no lower than 30%. Met?
Reply text: YES

Inquiry: Hello, I need to know if COc1ccc(CN2CC(O)CN(C(=O)OCC(C)C)CC2=O)cc1 (stereo unspecified) has measured Percent Effect not below 30%. Thanks!
Reply text: YES

Inquiry: Could you tell me if the measured Percent Effect of `CCC(=O)N1CCC2(CC1)COCCN2Cc1ccc(F)cc1.O=C(O)C(F)(F)F` reaches 30% or more?
Reply text: NO

Inquiry: Can COCCC(=O)N1CCCC2(CCCN2Cc2ccccc2F)C1.O=C(O)C(F)(F)F (stereo unspecified) be said to have Percent Effect at or above 30%?
Reply text: NO

Inquiry: Please indicate if the recorded Percent Effect for `CCN(CC)c1ccc2ccc(C(=O)N3CCCCO3)cn12.O=C(O)C(F)(F)F` meets or exceeds 30%.
Reply text: YES

Inquiry: Threshold query (Percent Effect >= 30%) on CC(C)COC(=O)N1CC(=O)N(Cc2ccc(Cl)cc2)CC(O)C1 (stereo unspecified)
Reply text: YES

Inquiry: Reported Percent Effect reaches at least 30% for `COCCN(Cc1sccc1C)Cc1nccn1CCOC` ?
Reply text: NO

Inquiry: Record `Cc1ccc(-c2cc(C(=O)NCCC3=CCCCC3)[nH]n2)o1` ; criterion: Percent Effect no lower than 30%. Met?
Reply text: YES

Inquiry: Has Cc1ccc(CN2CC(O)CN(C(=O)OCC(C)C)CC2=O)cc1 (stereo unspecified) a recorded Percent Effect greater than or equal to 30%?
Reply text: YES

Inquiry: Percent Effect >= 30% for `CCCc1cc(C(=O)NCCC2=CCCCC2)[nH]n1` ?
Reply text: NO

Inquiry: Item `CN1CCN(c2ccc3ccc(C(=O)N4CCCCO4)cn23)CC1.O=C(O)C(F)(F)F` with Percent Effect of 30% or above?
Reply text: NO

* * *

Tested on: Mycobacterium tuberculosis
Protocol Notes: Cornell M. t heat shock assay; also: in the data most compounds retested in dose-response had high values
Assay type: functional, organism-based
Design: dose or concentration left out as unconfirmed
Out of some 69,000 compounds screened, about 950 (1.4%) showed an effect of 50% or more. The list comes from a sample in which strong results are over-represented; it also holds close analogues and randomly drawn compounds.
Observable: Percent Effect (%)
Value expressed in %; do not type the unit.

Inquiry: Look up Percent Effect of `COCc1ccc(C(=O)N2CCC(c3cc4nccnc4[nH]3)CC2)cc1` and report it.
Reply text: 64.38

Inquiry: Please look at this molecule and report its Percent Effect: `O=C(CN1CC(c2nc(-c3ccco3)no2)C1)NCCc1ccccc1.O=C(O)C(=O)O`
Reply text: -7.325

Inquiry: Please report the measured Percent Effect for `COCc1cccc(S(=O)(=O)Nc2ncc(C)s2)c1`
Reply text: 15.26

Inquiry: Item `CCN1CCOCC12CCN(c1cnccn1)CC2.O=C(O)C(F)(F)F` : provide Percent Effect
Reply text: -4.677

Inquiry: Read off the recorded Percent Effect for `C=C1C(C)(C)[C@H]2CC[C@]1(C(=O)N1CCC(n3cc(CO)nn3)CC1)C2`
Reply text: 11.02

Inquiry: Consider the molecule `COCCN1CCc2c(CNC(=O)c3nccn3C)cncc2C1.Cl.Cl.Cl` . State its measured Percent Effect.
Reply text: 7.945

Inquiry: Indicate the recorded Percent Effect value for this molecule: `Cc1ccc(C(=O)N2CCC3(CC2)CC(N2CCOCC2)C3)cc1.O=C(O)C(F)(F)F`
Reply text: 4.537

Inquiry: # return recorded Percent Effect for entry `CCc1ncnc2c1CCN(CC(=O)N(C)C)CC2.O=C(O)C(F)(F)F`
Reply text: -2.001

Inquiry: Output Percent Effect of `CCOCc1cccc(S(=O)(=O)Nc2ncc(C)s2)c1`
Reply text: 52.82

Inquiry: Complete the entry with Percent Effect for `CNC(=O)c1cc2c(nc1NCC1CC1)CCN(CC1CC1)CC2.O=C(O)C(F)(F)F.O=C(O)C(F)(F)F`
Reply text: -24.38

The reported measurements were obtained from ChEMBL document CHEMBL3988442.
